# assayedSystem: Cholinesterase (Equus caballus, UniProt P81908)
# Sequence (P81908 whole entry): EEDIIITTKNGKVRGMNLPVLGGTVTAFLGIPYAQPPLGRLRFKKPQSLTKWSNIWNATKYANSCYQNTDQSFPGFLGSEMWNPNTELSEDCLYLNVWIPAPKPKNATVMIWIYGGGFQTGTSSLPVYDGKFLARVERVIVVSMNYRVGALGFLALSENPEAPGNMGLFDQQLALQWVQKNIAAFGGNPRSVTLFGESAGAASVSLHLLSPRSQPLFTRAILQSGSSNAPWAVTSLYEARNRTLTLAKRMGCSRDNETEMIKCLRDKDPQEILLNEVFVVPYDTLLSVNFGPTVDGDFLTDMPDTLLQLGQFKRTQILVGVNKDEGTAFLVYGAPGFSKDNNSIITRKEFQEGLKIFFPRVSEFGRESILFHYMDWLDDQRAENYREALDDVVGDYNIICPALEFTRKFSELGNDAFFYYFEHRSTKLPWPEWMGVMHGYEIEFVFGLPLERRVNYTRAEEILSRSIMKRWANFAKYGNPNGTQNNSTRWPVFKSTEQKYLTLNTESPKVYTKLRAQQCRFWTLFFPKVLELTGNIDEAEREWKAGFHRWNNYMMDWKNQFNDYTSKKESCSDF
# procedureSummary: Inhibition of Equine serum BuChE using S-butyrylthiocholine iodide as a substrate and measured for 125 sec by DTNB based Ellman's method
pIC50: −log10 of the molar value.
valueType: pIC50

CCOc1cc(C#N)cc2c1OCC(C)(C)C2=O : < 4.00
CC1(C)COc2cc(F)c(F)cc2C1=O : < 4.00
COc1cccc2c1OCC(C)(C)C2=O : < 4.00
CC1(C)COc2ccc(F)cc2C1O (stereo not drawn) : < 4.00
CC1(C)COc2ncccc2C1=O : < 4.00

Would you mind giving pIC50 for every molecule in the list below?
1. COc1cccc2c1C(O)C(C)(C)CO2 (stereo not drawn)
2. CC1(C)COc2cc(F)ccc2C1=O
3. Cc1ccc2c(c1)C(O)C(C)(C)CO2 (stereo not drawn)

### Response
["< 4.00", "< 4.00", "< 4.00"]
